- experimental_system: recombinant human KIT tyrosine kinase protein (Homo sapiens (Human))
- run_description: KIT tyrosine kinase assay (ADP-Glo)
- Assay type: biochemical
- setup_conditions: Table 98
Counter-ions that a name gives are not always drawn.
observation_type: IC50

INSERT INTO results (molecule, recorded_result) VALUES
  ('Cn1c(=O)[nH]c2cc(C(=O)NCc3cnc4c(ccn4-c4ccccc4)c3)ccc21 [Compound 20]', '38 nM'),
  ('Cn1c(=O)[nH]c2cc(C(=O)NCc3ccc(N(C)[C@H]4C[C@@H](C(F)(F)F)C4)nc3)ccc21 [Compound 12]', '36 nM'),
  ('O=C(NCc1ccc(Oc2cccc(F)c2)nc1)c1ccc2[nH]c(=O)[nH]c2c1 [Example 30]', '67 nM'),
  ('CC(c1ccc(F)cc1)c1ccc(CNC(=O)c2ccc3c(c2)[nH]c(=O)n3C)cn1 (centres unmarked) [Compound 15]', '67 nM'),
  ('CN(c1ccc(CNC(=O)c2ccc3c(c2)[nH]c(=O)n3C)cn1)c1ccccc1F [Example 59]', '14 nM'),
  ('CCC(C)N(C)c1ccc(CNC(=O)c2ccc3c(c2)[nH]c(=O)n3C)cn1 (centres unmarked) [Example 84]', '16 nM'),
  ('Cn1c(=O)[nH]c2cc(C(=O)NCc3ccc(Oc4cccc(F)c4)nc3)ccc21 [Example 33]', '78 nM'),
  ('O=C(NCc1ccc(C(F)(F)F)nc1)c1ccc2[nH]c(=O)[nH]c2c1 [Example 28]', '3600 nM'),
  ('Cn1c(=O)[nH]c2cc(C(=O)NCc3ccc(Oc4c(F)cccc4F)nc3)ccc21 [Example 40]', '39 nM'),
  ('CN1CCN(Cc2cccc(N(C)c3ccc(CNC(=O)c4ccc5c(c4)[nH]c(=O)n5C)cn3)c2)CC1 [Compound 26, trifluoroacetate]', '270 nM'),
  ('CN(CC1CCC(F)(F)CC1)c1ccc(CNC(=O)c2ccc3c(c2)[nH]c(=O)n3C)cn1 [Example 70]', '61 nM'),
  ('CCN(c1ccc(F)cc1)c1ccc(CNC(=O)c2ccc3c(c2)[nH]c(=O)n3C)cn1 [Example 58]', '21 nM'),
  ('Cn1c(=O)[nH]c2cc(C(=O)NCc3ccc(Oc4cc(F)ccc4F)nc3)ccc21 [Example 41]', '36 nM'),
  ('CN(CC1CC(F)(F)C1)c1ccc(CNC(=O)c2ccc3c(c2)[nH]c(=O)n3C)cn1 [Example 68]', '42 nM'),
  ('Cn1c(=O)[nH]c2cc(C(=O)NCc3ccc(Oc4ccc(Cl)cc4)nc3)ccc21 [compound 34]', '58 nM'),
  ('CC(N(C)c1ccc(CNC(=O)c2ccc3c(c2)[nH]c(=O)n3C)cn1)C(F)(F)F (centres unmarked) [Example 86]', '15 nM'),
  ('CN(c1ccc(F)cc1)c1ccc(CNC(=O)c2ccc3c(c2)[nH]c(=O)n3C)cn1 [Compound 9, trifluoroacetate]', '34 nM'),
  ('CN(Cc1cccc(F)c1)c1ccc(CNC(=O)c2ccc3c(c2)[nH]c(=O)n3C)cn1 [Example 73]', '27 nM'),
  ('CN(CC1CCOCC1)c1ccc(CNC(=O)c2ccc3c(c2)[nH]c(=O)n3C)cn1 [Example 72]', '84 nM'),
  ('Cn1c(=O)[nH]c2cc(C(=O)NCc3ccc(Oc4ccc(Cl)c(F)c4)nc3)ccc21 [Example 38]', '60 nM'),
  ('Cn1c(=O)[nH]c2cc(C(=O)NCc3ccc(C(F)c4ccc(F)cc4)nc3)ccc21 (centres unmarked) [Compound 16]', '61 nM'),
  ('CC(c1ccccc1)N(C)c1ccc(CNC(=O)c2ccc3c(c2)[nH]c(=O)n3C)cn1 (centres unmarked) [Example 82]', '75 nM'),
  ('CN(Cc1ccccc1)c1ccc(CNC(=O)c2ccc3c(c2)[nH]c(=O)n3C)cn1 [Example 66]', '33 nM'),
  ('O=C(NCc1ccc(Nc2ccc(F)cc2)nc1)c1ccc2[nH]c(=O)[nH]c2c1 [Compound 8, trifluoroacetate]', '190 nM'),
  ('Cn1c(=O)[nH]c2cc(C(=O)NCc3ccc(Oc4ccccc4F)nc3)ccc21 [Compound 1]', '57 nM'),
  ('Cn1c(=O)[nH]c2cc(C(=O)NCc3ccc(N(c4ccc(F)cc4)C4CC4)nc3)ccc21 [Compound 23]', '78 nM'),
  ('CN(c1ccc(CNC(=O)c2ccc3c(c2)[nH]c(=O)n3C)cn1)c1cccc(F)c1F [Example 61]', '56 nM'),
  ('CN(c1ccc(F)cc1)c1ccc(CNC(=O)c2ccc3[nH]c(=O)[nH]c3c2)cn1 [Example 56]', '29 nM'),
  ('C[C@H]1CCCN1c1ccc(CNC(=O)c2ccc3c(c2)[nH]c(=O)n3C)cn1 [Compound 14]', '63 nM'),
  ('CC(NC(=O)c1ccc2c(c1)[nH]c(=O)n2C)c1ccc(Oc2ccc(F)c(F)c2)nc1 (centres unmarked) [Example 51]', '210 nM'),
  ('Cn1c(=O)[nH]c2cc(C(=O)NCc3ccc(Oc4ccc(Cl)cc4F)nc3)ccc21 [Example 39]', '35 nM'),
  ('Cn1c(=O)[nH]c2cc(C(=O)NCc3cnc4c(c3)ncn4-c3ccccc3F)ccc21 [Example 101]', '3300 nM');

---

- experimental_system: recombinant human KIT tyrosine kinase protein (Homo sapiens (Human), UniProt P10721)
- Sequence (P10721 546-976): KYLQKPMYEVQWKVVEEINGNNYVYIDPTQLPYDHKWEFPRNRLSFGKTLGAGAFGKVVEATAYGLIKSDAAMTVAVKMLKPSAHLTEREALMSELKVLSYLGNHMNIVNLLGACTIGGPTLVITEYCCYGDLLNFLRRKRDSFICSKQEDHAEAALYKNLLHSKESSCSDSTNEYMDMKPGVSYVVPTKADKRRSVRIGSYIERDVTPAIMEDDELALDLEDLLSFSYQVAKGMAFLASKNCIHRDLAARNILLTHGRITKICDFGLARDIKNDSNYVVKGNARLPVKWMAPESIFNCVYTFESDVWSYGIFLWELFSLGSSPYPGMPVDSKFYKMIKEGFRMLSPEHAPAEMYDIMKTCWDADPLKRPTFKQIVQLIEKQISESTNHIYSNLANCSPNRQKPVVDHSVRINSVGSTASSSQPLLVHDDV
- run_description: KIT tyrosine kinase assay (ADP-Glo)
- Assay type: biochemical
- setup_conditions: Table 98
Structures can show the parent of a compound that is named as a salt.
Measured IC50 by item
observation_type: IC50

INSERT INTO measurements (compound, recorded_result) VALUES
  ('CC(C)n1c(=O)[nH]c2cc(C(=O)NCc3ccc(Oc4ccc(F)cc4)nc3)ccc21 [Compound 2]', '450 nM'),
  ('Cn1c(=O)[nH]c2cc(C(=O)NCc3ccc(Oc4ccc5cn[nH]c5c4)nc3)ccc21 [Example 44]', '120 nM'),
  ('O=C(NCc1ccc(Oc2ccc(Cl)cc2)nc1)c1ccc2[nH]c(=O)[nH]c2c1 [Example 31]', '70 nM'),
  ('Cn1c(=O)[nH]c2cc(C(=O)NCc3ccc(Oc4cccc(C#N)c4)nc3)ccc21 [Compound 22, trifluoroacetate]', '460 nM'),
  ('Cn1c(=O)[nH]c2cc(C(=O)NCc3ccc(Oc4c(F)cc(F)cc4F)nc3)ccc21 [Example 42]', '27 nM'),
  ('C[C@H](NC(=O)c1ccc2c(c1)[nH]c(=O)n2C)c1ccc(N(C)c2ccccc2F)nc1 [Example 88]', '98 nM'),
  ('CC(NC(=O)c1ccc2c(c1)[nH]c(=O)n2C)c1ccc(Oc2ccc(Cl)cc2F)nc1 (centres unmarked) [Example 52]', '24 nM'),
  ('CC(C1CC1)N(C)c1ccc(CNC(=O)c2ccc3c(c2)[nH]c(=O)n3C)cn1 (centres unmarked) [Example 83]', '41 nM');

---

- Test system: M-07e cells
- run_description: SCF-dependent M-07e cell proliferation assay
- Type: cell-based, human
- setup_conditions: Homo sapiens, M-07e, 72 h, SCF-dependent M-07e cell proliferation, 3 days, CellTiter Glo; read-out: M-07e IC50
Counter-ions that a name gives are not always drawn.
observation_type: IC50 (µM)

INSERT INTO results (molecule, observation_type, unit_of_measure, recorded_result) VALUES
  ('CN(c1ccc(F)cc1)c1ccc(CNC(=O)c2ccc3c(c2)[nH]c(=O)n3C)cn1 [Compound 9, trifluoroacetate]', 'IC50', 'µM', 0.61),
  ('CN(c1ccc(CNC(=O)c2ccc3c(c2)[nH]c(=O)n3C)cn1)C1CCC(F)(F)CC1', 'IC50', 'µM', 0.24),
  ('CN(c1ccc(CNC(=O)c2cc3[nH]c(=O)[nH]c3cc2F)cn1)[C@H]1C[C@@H](C(F)(F)F)C1', 'IC50', 'µM', 0.036),
  ('CN(c1ccc(CNC(=O)c2ccc3c(c2)[nH]c(=O)n3C)cn1)C1CCCC(O)C1 (stereo not shown)', 'IC50', 'µM', 7.66);

---

- experimental_system: recombinant human KIT tyrosine kinase protein (Homo sapiens (Human))
- run_description: KIT tyrosine kinase assay (ADP-Glo)
- Format: biochemical
- setup_conditions: Table 98
observation_type: IC50 (nM)

INSERT INTO results (sample_smiles, unit_of_measure, recorded_result) VALUES
  ('C[C@H](NC(=O)c1ccc2c(c1)[nH]c(=O)n2C)c1ccc(Oc2cccc(F)c2F)nc1', 'nM', 37),
  ('CC(C)N(C)c1cnc(CNC(=O)c2ccc3c(c2)[nH]c(=O)n3C)cn1', 'nM', 120),
  ('CN(CCC(F)(F)F)c1ccc(CNC(=O)c2ccc3c(c2)[nH]c(=O)n3C)cn1', 'nM', 25),
  ('CN(c1ccc(CNC(=O)c2ccc3c(c2)[nH]c(=O)n3C)cn1)c1ccc(F)cc1F', 'nM', 170);
